The origin of these recorded values is patent US12144869B2.

- ASSAY_COMMENT: Differential scanning fluorimetry (protein thermal shift; TM1/TM2)
- Assay type: physicochemical
- CONDITION_PARAMETERS: Table 11; melting temperature of the Fab domain
- Method: A protein thermal shift assay was carried out by mixing the protein to be assayed with an environmentally sensitive dye (SYPRO Orange, Life Technologies Cat #S-6650) in a phosphate buffered solution (PBS), and monitoring the fluorescence of the mixture in real time as it underwent controlled thermal denaturation. […] At the end of the experiment, the transition melting temperatures (TM1 and TM2) were determined using the Bio-Rad CFX manager software. […]

>  <MOLECULE>
SRP2196-B01 (antibody, V domains shown) VH: EVQLVESGGGLVQPGGSLRLSCAASGFNITGYYIHWVRQAPGKGLEWVGQISPNSGYTYYADSVKGRFTISADTSKNTTYLQMNSLRAEDTAVYYCARDSRRYVRSWDYWGQGTLVTVSS VL: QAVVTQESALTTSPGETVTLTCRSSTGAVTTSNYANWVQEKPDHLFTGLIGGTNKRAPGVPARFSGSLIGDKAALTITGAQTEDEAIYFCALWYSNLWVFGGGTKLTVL

>  <TM2 (° C.), °C>
75

$$$$
>  <MOLECULE>
SRP2196-B09 (antibody, V domains shown) VH: EVQLVESGGGLVQPEGSLRLSCAASGFNITEYYIHWVRQAPGKGLEWVGYISPNSGSTYYADSVKGRFTISADTSKNTAYLQMNSLRAEDTAVYYCARDSRRYVRSWDYWGQGTLVTVSS VL: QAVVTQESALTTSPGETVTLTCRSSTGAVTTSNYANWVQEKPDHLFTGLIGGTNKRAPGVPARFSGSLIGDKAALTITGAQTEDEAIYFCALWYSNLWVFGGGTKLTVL

>  <TM2 (° C.), °C>
72

$$$$
>  <MOLECULE>
SRP2196-A06 (antibody, V domains shown) VH: EVQLVESGGGLVQPGGSLRLSCAASGFNITGYYIHWVRQAPGKGLEWVGQISPNSGSTHQADSVKGRFTISADTSKNTAYLQMNSLRAGDTAVYYCARDSRRYVRGWDYWGQGTLVTVSS VL: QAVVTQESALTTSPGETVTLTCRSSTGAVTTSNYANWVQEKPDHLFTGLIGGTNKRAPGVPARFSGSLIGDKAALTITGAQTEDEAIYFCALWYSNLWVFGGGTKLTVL

>  <TM2 (° C.), °C>
70

$$$$
